Measured values drawn from patent EP4796557A1 for this set.

target: MMP2 (Homo sapiens); test: Enzymolysis assay of polypeptides by MMP2 (RP-HPLC); type: biochemical; conditions: test polypeptide 100 µmol, activated MMP2, 37°C, 4 h
Sequence (P08253 110-660, species assumed): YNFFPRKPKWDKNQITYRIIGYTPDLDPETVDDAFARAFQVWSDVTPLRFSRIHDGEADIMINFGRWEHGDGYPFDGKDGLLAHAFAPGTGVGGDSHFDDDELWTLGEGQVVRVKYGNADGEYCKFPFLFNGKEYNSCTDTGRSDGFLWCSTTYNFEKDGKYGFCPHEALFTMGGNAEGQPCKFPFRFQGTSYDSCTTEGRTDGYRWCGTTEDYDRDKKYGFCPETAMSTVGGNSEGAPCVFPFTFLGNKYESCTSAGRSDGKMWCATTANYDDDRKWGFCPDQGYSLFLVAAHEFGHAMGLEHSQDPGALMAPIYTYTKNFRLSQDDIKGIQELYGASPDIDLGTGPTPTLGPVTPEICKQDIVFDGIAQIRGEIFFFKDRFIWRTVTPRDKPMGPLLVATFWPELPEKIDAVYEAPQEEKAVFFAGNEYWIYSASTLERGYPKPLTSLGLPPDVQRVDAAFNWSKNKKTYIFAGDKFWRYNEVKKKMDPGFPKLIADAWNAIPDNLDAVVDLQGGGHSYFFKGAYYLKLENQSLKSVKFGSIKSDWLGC
Square brackets hold non-standard residues; d marks the D form. Peptide text beside a SMILES is read from it. Cit = NC(=O)NCCC[C@H](N)C(=O)O
Observable: Enzymolysis efficiency (%)

Recorded Enzymolysis efficiency (%), per entry:
# Molecule, Reading Unit, Enzymolysis efficiency (%)
records = [
    ("CC(=O)NCC(=O)N1CCC[C@H]1C(=O)N[C@@H](C)C(=O)NCC(=O)N[C@@H](CC(C)C)C(=O)N[C@H](C(=O)N[C@@H](CCCNC(N)=O)C(N)=O)C(C)C [Compound 1-P7] (Ac-GPAGLV[Cit]-NH2)", "%", 90.29),
    ("CC(=O)N1CCC[C@H]1C(=O)N[C@@H](CCCNC(=N)N)C(=O)N[C@@H](CO)C(=O)N[C@@H](CC(C)C)C(=O)N[C@H](C(=O)N[C@@H](CCCNC(N)=O)C(N)=O)C(C)C [Compound 2-P2] (Ac-PRSLV[Cit]-NH2)", "%", 53.20),
]

A = CC(=O)N[C@@H](Cc1c[nH]cn1)C(=O)N1CCC[C@H]1C(=O)N[C@@H](CCCNC(N)=O)C(=O)N1CCC[C@H]1C(=O)N[C@@H](CC(C)C)C(=O)N[C@H](C(=O)N[C@@H](CCCNC(N)=O)C(N)=O)C(C)C [Compound 2-P17] (Ac-HP[Cit]PLV[Cit]-NH2)
B = CC(=O)NCC(=O)N1CCC[C@H]1C(=O)N[C@@H](C)C(=O)N1CCC[C@H]1C(=O)N[C@@H](CC(C)C)C(=O)N[C@H](C(=O)N[C@@H](CCCNC(N)=O)C(N)=O)C(C)C [Compound 2-P25] (Ac-GPAPLV[Cit]-NH2)
Data request: Which record shows the lower Enzymolysis efficiency (%): the first, A , or the second, B ? Output the label that corresponds to your choice.
Data returned: A
(A: 42.87%, B: 85.08%)
